Measured values drawn from ChEMBL document CHEMBL5042469 for this set.

Target: Histone deacetylase 11 (Homo sapiens)
Sequence (Q96DB2 whole entry): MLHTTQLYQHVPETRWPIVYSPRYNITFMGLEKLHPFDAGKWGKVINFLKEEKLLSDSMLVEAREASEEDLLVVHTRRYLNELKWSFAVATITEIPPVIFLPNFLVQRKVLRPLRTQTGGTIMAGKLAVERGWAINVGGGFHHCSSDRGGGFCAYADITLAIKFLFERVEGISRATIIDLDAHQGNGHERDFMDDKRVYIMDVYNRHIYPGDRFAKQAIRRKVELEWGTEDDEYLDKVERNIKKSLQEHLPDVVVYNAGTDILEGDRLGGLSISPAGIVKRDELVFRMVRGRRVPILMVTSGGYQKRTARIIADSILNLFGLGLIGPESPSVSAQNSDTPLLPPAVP
Assay: Inhibition of full length human HDAC11 using FAM-labeled acetylated peptide as substrate by electrophoretic mobility shift assay
# IC50 listing for each entry below
Report only the number, with the unit nM understood.

Some molecules with recorded IC50:
O=C(NO)c1ccc(CN(Cc2ccncc2)S(=O)(=O)c2cc(F)c(F)c(F)c2F)cc1: 472
Cc1ccc(CN(Cc2ccc(C(=O)NO)cc2)S(=O)(=O)c2c(F)c(F)c(F)c(F)c2F)cc1: 73

As a next step, examine the molecule that follows.
# IC50 (molecule: O=C(NO)c1ccc(CN(Cc2ccccc2)S(=O)(=O)c2c(F)c(F)c(F)c(F)c2F)cc1 ) is 122

====

assay: Stability in mouse plasma assessed as compound remaining measured after 15 mins; assay type: ADME, cell-free; details: read-out: Stability
Endpoint label: remaining at 0.25 h (%)
Report only the number, with the unit % understood.

# remaining at 0.25 h (compound: O=C(NO)c1ccc(CN(Cc2cccnc2)S(=O)(=O)c2cc(F)c(F)c(F)c2F)cc1 ) is 88.1

====

experiment: Stability in mouse plasma measured assessed as compound remaining after 60 mins; assay type: ADME, cell-free; conditions: read-out: Stability
Endpoint label: remaining at 1 h (%)
Report only the number, with the unit % understood.

# remaining at 1 h (compound: O=C(NO)c1ccc(CN(Cc2cccnc2)S(=O)(=O)c2cc(F)c(F)c(F)c2F)cc1 ) is 68

====

biological target: Histone deacetylase 5 (Homo sapiens, UniProt Q9UQL6)
Sequence (Q9UQL6 whole entry): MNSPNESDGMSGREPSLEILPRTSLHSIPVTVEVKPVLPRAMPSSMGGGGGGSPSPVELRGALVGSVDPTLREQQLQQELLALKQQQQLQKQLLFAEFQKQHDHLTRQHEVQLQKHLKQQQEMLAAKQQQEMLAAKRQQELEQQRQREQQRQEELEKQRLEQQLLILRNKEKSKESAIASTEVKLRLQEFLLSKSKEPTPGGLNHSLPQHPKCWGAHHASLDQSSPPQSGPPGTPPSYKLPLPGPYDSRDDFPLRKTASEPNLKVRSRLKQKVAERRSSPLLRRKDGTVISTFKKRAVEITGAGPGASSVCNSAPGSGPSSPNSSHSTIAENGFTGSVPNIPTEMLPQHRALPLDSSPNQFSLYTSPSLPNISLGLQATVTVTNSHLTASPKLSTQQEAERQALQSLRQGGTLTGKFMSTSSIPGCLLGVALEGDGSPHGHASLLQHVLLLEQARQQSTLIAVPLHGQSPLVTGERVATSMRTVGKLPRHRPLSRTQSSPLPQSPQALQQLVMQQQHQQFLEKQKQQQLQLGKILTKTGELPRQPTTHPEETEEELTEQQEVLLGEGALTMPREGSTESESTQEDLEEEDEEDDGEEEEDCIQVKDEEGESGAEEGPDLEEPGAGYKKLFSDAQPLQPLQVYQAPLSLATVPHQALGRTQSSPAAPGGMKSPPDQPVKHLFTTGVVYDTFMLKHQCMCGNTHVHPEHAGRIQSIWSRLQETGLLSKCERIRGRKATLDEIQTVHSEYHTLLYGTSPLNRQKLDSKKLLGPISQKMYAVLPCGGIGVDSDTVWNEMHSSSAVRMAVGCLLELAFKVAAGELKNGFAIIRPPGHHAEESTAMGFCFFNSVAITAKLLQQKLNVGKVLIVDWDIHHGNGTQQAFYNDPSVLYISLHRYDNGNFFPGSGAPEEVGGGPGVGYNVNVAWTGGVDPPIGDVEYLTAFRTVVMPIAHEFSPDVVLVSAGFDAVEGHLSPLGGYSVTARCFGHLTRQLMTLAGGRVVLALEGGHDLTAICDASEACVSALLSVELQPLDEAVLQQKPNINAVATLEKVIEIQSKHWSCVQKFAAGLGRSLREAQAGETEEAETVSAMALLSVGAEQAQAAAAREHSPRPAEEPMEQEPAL
Endpoint label: pIC50
The scale used: pIC50 is minus the common logarithm of the concentration in molar units.

# pIC50 (compound: O=C(NO)c1ccc(CN(Cc2cccnc2)S(=O)(=O)c2cc(F)c(F)c(F)c2F)cc1 ) is 5.06
